# Assayed Target: human NCX1 (Homo sapiens)
# Construct: expressed in transfected cells
# Test Summary: NCX1 inhibition, reverse mode (Ca2+ influx into cells), FLIPR Fluo-4 assay
# Type: cell-based
# Run Conditions: inhibition of NCX1 in reverse mode (Ca2+ influx into cells); read-out: NCX1rv IC50
Where a name gives a salt, the structure may show the parent alone.
The label Y is reserved for IC50 strictly under 300 nM; N covers values equal to or above it.

# TODO verify IC50 < 300 nM strictly for this compound: Cc1ccc(F)cc1C1CCc2cc(Oc3ncc(C(=O)N(C)C)s3)ccc2O1 (stereo not shown) [Example 348] N

Given the entry CC(C)[C@H](NC(=O)c1cnc(Oc2ccc3c(c2)CC[C@@H](c2ccccc2)O3)s1)C(=O)O [compound 197] , would its reported IC50 be below 300 nM? N

Does this compound meet the criterion IC50 < 300 nM? Cc1nc(Oc2ccc3c(c2)CCC(c2ccccc2)O3)sc1C(=O)NCc1ccncc1 (stereo not shown) [Example 59, hydrochloride] Y
